- Test system: HCC1937;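 further: viability read by CCK-8 kit in 96-well plates, part of a combination screen pairing lipid-metabolism-targeting compounds with erastin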
- PROTOCOL_DETAILS: relative cell viability, compound + erastin, vs DMSO (fraction of DMSO control); higher = less growth inhibition
- CONDITION_SET: 72 h
MEASUREMENT_NAME: relative cell viability
Give bare numbers.

INSERT INTO measurements (compound, tested_on, numeric_result) VALUES
  ('CC(C)=CCC[C@](C)(O)[C@H]1CC[C@]2(C)[C@@H]1[C@H](O)C[C@@H]1[C@@]3(C)CC[C@H](O)C(C)(C)[C@@H]3[C@@H](O[C@@H]3O[C@H](CO)[C@@H](O)[C@H](O)[C@H]3O)C[C@]12C [Ginsenoside Rh1] + CCOc1ccccc1-n1c(C(C)N2CCN(C(=O)COc3ccc(Cl)cc3)CC2)nc2ccccc2c1=O', 'HCC1937', 0.679),
  ('CNC(=O)c1cccc(NC(=O)N2CCC(Oc3ccccc3Cl)CC2)c1 + CCOc1ccccc1-n1c(C(C)N2CCN(C(=O)COc3ccc(Cl)cc3)CC2)nc2ccccc2c1=O', 'HCC1937', 0.566),
  ('O=C(O)c1c[nH]c2cc(Cl)c(-c3ccc(C4(O)CCC4)cc3)cc12 + CCOc1ccccc1-n1c(C(C)N2CCN(C(=O)COc3ccc(Cl)cc3)CC2)nc2ccccc2c1=O', 'HCC1937', 0.599),
  ('Nc1cccc(S(=O)(=O)N2CCCN(S(=O)(=O)c3ccc4c(c3)OCCO4)CC2)c1 + CCOc1ccccc1-n1c(C(C)N2CCN(C(=O)COc3ccc(Cl)cc3)CC2)nc2ccccc2c1=O', 'HCC1937', 0.817);

Batch of 5 compounds: report relative cell viability for each.
1. CCCCCCCCCCCCCCOc1ccc(C(=O)OCC(=O)N(C)CC(=O)OCC)o1 [Olumacostat Glasaretil] + CCOc1ccccc1-n1c(C(C)N2CCN(C(=O)COc3ccc(Cl)cc3)CC2)nc2ccccc2c1=O
2. O=C(O)C(=O)Nc1sc2c(c1C(=O)O)CCNC2 + CCOc1ccccc1-n1c(C(C)N2CCN(C(=O)COc3ccc(Cl)cc3)CC2)nc2ccccc2c1=O
3. O=C(/C=C/c1ccc(/C=C/C(=O)Nc2ccc(C3=NCCN3)cc2)cc1)Nc1ccc(C2=NCCN2)cc1 + CCOc1ccccc1-n1c(C(C)N2CCN(C(=O)COc3ccc(Cl)cc3)CC2)nc2ccccc2c1=O
4. O=S(=O)(c1ccccc1)N(CC(F)(F)F)c1ccc(C(O)(C(F)(F)F)C(F)(F)F)cc1 + CCOc1ccccc1-n1c(C(C)N2CCN(C(=O)COc3ccc(Cl)cc3)CC2)nc2ccccc2c1=O
5. CCC(CC)CC1(C(=O)Nc2ccccc2SC(=O)C(C)C)CCCCC1 [Dalcetrapib] + CCOc1ccccc1-n1c(C(C)N2CCN(C(=O)COc3ccc(Cl)cc3)CC2)nc2ccccc2c1=O

A:
[0.549, 0.755, 0.554, 0.835, 0.737]
